// values below are reported CC50 at 24 h
assay: Neurotoxicity against rat PC12 cells incubated for 24 hrs by MTT assay; assay type: toxicity, cell-based, PC-12; conditions: read-out: LD50

| chemical.smiles | CC50 at 24 h |
| --- | --- |
| CCN(CC)CCN(CC(=O)Nc1ccccc1C)Cc1ccc2ccccc2c1 | 40.6 µM |
| Cc1cccc(NC(=O)CN(Cc2ccccc2)Cc2ccco2)c1C | 32.1 µM |
| Cc1ccccc1NC(=O)CN(Cc1ccc2ccccc2c1)CC(C)C | 78.8 µM |
| O=C(CN(Cc1ccco1)Cc1c[nH]c2ccccc12)Nc1ccccc1 | 40.4 µM |
| CCCN(CC(=O)Nc1ccccc1C)Cc1ccc2ccccc2c1 | 45.9 µM |
| CCCN(CCCc1ccccc1)Cc1ccc2ccccc2c1 | 77.8 µM |
